Assignment: determine reported GI50 for the given molecules.
- Test system: MDA-MB-231
- testName: NCI tumour cell line growth inhibition, 48 h
Active and inactive are the calls of the source. No stated cut-off is given here; in the data, active = GI50 up to about 1.1 µM and inactive = higher.

Record summary for COC(=O)c1c(C)nc(C)c(NO)c1-c1ccccc1C(F)(F)F : reported GI50 = 13.8 µM (inactive)

Record summary for Cc1nc2ccccc2nc1-c1ccc(/N=[N+](\[O-])c2ccc(-c3nc4ccccc4nc3C)cc2)cc1 : reported GI50 = 24.2 µM (inactive)

Record summary for CCCCc1ccc(Nc2nc(Cl)c3[nH]cnc3n2)cc1 : reported GI50 = 16.6 µM (inactive)

Record summary for CCOC(=O)/C=C/C1OC(C)(C)OC1/C=C/C(=O)OCC (stereo not drawn) : reported GI50 = 39.9 µM (inactive)

Record summary for CC1(C)CC2(C)CC1CC2O (stereo not drawn) : reported GI50 = > 100 µM (inactive)

Record summary for CC1=C(C(=O)OC(C)C)C(c2ccccc2[N+](=O)[O-])C(C(=O)OC(CO[N+](=O)[O-])CO[N+](=O)[O-])=C(C)N1 (stereo not drawn) : reported GI50 = 5.68 µM (inactive)

Record summary for CN1CCC[N+](C)=C1c1ccccc1 : reported GI50 = > 100 µM (inactive)

Record summary for Cc1ccc(C(=O)CCl)o1 : reported GI50 = > 7.31 µM (inactive)

Record summary for CC1(C)C(C(=O)OC(C#N)c2cccc(OCC(=O)OCc3ccccc3)c2)C1(C)C (stereo not drawn) : reported GI50 = 66.1 µM (inactive)

Record summary for COc1ccc(C2=NN(C(=O)c3cccnc3)C(O)(c3cc(F)c(Cl)cc3Cl)C2)cc1OC (stereo not drawn) : reported GI50 = 13.9 µM (inactive)

Record summary for CC(=O)C1C(=O)C(=O)N(c2ccc(Cl)c(Cl)c2)C1=O (stereo not drawn) : reported GI50 = > 100 µM (inactive)

Record summary for COc1cc(N(C)C)c(OC)cc1/C=C\c1ccnc2ccccc12 : reported GI50 = 2.8 µM (inactive)

Record summary for COC(=O)NC1=NNC(=O)c2ccccc2N1 : reported GI50 = > 100 µM (inactive)

Record summary for CC1(C)N=c2c(ncn2CCO)=C(C(N)=O)N1 : reported GI50 = > 100 µM (inactive)

Record summary for O=[N+]([O-])C(=C(\Cl)NCCO)/C(Cl)=C(/Cl)Br : reported GI50 = 1.74 µM (inactive)

Record summary for CC(C)=CCC(O)C1=CC(=O)c2c(O)ccc(O)c2C1=O (stereo not drawn) : reported GI50 = 1.55 µM (inactive)

Record summary for C[C@]12CC[C@H]3[C@@H](CCC4=C[C@@H](OC5OCC(OC6OC(CO)C(O)C(O)C6O)C(O)C5O)CC[C@@]43C=O)[C@@]1(O)CCC2C1=CC(=O)OC1 (stereo partly drawn) : reported GI50 = 3.02 µM (inactive)

Record summary for C=C(CC[C@@H](C)[C@H]1CC[C@@]2(C)C3=C(CC[C@]12C)[C@@]1(C)CC[C@H](O)[C@@H](C)C1CC3)C(C)C (stereo partly drawn) : reported GI50 = 1.5 µM (inactive)

----------
- Test system: HCT-116
- testName: NCI tumour cell line growth inhibition, 48 h
Active and inactive are the calls of the source. No stated cut-off is given here; in the data, active = GI50 up to about 1.1 µM and inactive = higher.
Form entry, call: pick from active, inactive

Incoming: Kindly provide the recorded test outcome for the following compound: O=C(O)Cn1ccnc1[N+](=O)[O-]
Outgoing: inactive

Incoming: Kindly provide the recorded test outcome for the following compound: CCCN(CCC)C(=S)N/N=C/c1cccc(C)n1
Outgoing: active

Incoming: Kindly provide the recorded test outcome for the following compound: COc1ccc(NC(=O)C(=O)C(CC2C(=O)NC(=S)NC2=O)C(=O)c2ccc3ccccc3c2)c([N+](=O)[O-])c1 (stereo not drawn)
Outgoing: inactive

----------
- Test system: XF498
- testName: NCI tumour cell line growth inhibition, 48 h
Active and inactive are the calls of the source. No stated cut-off is given here; in the data, active = GI50 up to about 1.1 µM and inactive = higher. *1 amine or outer side, *2 acyl side, *3 side chain or, on linkers, in order; H or OH if unused. Where a SMILES comes first, the peptide text is derived from it. Bridges are numbered along the chain shown (N, C = ends). [ ]: non-standard residue; d: D form. The star is where a group is joined. X56 = CC(C)C(C)C(C(=O)[*:2])N(C)[*:1]; Picolinoyl(3-OH) = O=C(c1ncccc1O)*; NMePhg = CN[CH](C(=O)O)c1ccccc1; Hyp = O=C(O)[CH]1C[CH](O)CN1; Sar = CNCC(=O)O
Assignment: determine reported GI50 for the given compounds.

Record summary for O=S(O)c1cc(Cl)c(O)c(Cl)c1 : reported GI50 = > 100 µM (inactive)

Record summary for CCCc1cc(-c2ccc(-c3cc(CCC)c(C=O)[nH]3)s2)[nH]c1C=O : reported GI50 = > 100 µM (inactive)

Record summary for NCCSc1nc(N)c2ncn(C3OC(CO)C(O)C3O)c2n1 (stereo not given) : reported GI50 = > 100 µM (inactive)

Record summary for COc1cc([C@@H]2c3cc4c(cc3[C@@H](OC(=O)c3cccc(N)c3)C3COC(=O)[C@@H]32)OCO4)cc(OC)c1O (stereo not given in full) : reported GI50 = 0.863 µM (active)

Record summary for O=C(Cc1ccccc1)N/N=C(\C1=Nc2ccc([N+](=O)[O-])cc2NC1O)C(O)c1ccc([N+](=O)[O-])cc1 (stereo not given) : reported GI50 = > 100 µM (inactive)

Record summary for CCCN1CC=CCC1 : reported GI50 = > 100 µM (inactive)

Record summary for COc1ccc(/C=C\c2cc(OC)c3c(c2)OCO3)c(O)c1O : reported GI50 = 11.1 µM (inactive)

Record summary for CC(C)CC1NC(=O)C(NC(=O)c2ncccc2O)C(C)OC(=O)C(c2ccccc2)N(C)C(=O)C(C)NC(=O)C(C(C)C(C)C)N(C)C(=O)CN(C)C(=O)C2CC(O)CN2C1=O (stereo not given) ({Picolinoyl(3-OH)}-TL[Hyp][Sar][X56]A[NMePhg]; ester 1-C; configuration not given here) : reported GI50 = 35.6 µM (inactive)

Record summary for COc1ccc2nc(-c3ccc(OCc4ccccc4)cc3)ccc2c1 : reported GI50 = > 100 µM (inactive)

Record summary for COc1ccc(-c2ccc(CC(=O)O)cc2)cc1OC : reported GI50 = 20.7 µM (inactive)

Record summary for COc1ccc2c(c1)[n+]([O-])c(/C(C)=N/NC(N)=S)c(C)[n+]2[O-] : reported GI50 = 39 µM (inactive)

Record summary for COc1ccc2[nH]cc(/C=C(/C)c3ccncc3)c2c1 : reported GI50 = 10.7 µM (inactive)

Record summary for BrC1(Br)C2/C=C\CCCCC21 (stereo not given) : reported GI50 = > 100 µM (inactive)

Record summary for O=C(N/N=C1\C(=O)N(c2nccs2)C(=O)C(=O)C1c1nc2ccccc2s1)c1ccccc1O (stereo not given) : reported GI50 = 27.1 µM (inactive)

Record summary for N#CC(Nc1cccc(C(F)(F)F)c1)c1ccccc1C(F)(F)F (stereo not given) : reported GI50 = 3.94 µM (inactive)

Record summary for O=C(CC(=O)C1=CNc2ccccc2S1)C(=O)Nc1ccc(Cl)cc1 : reported GI50 = > 50 µM (inactive)

Record summary for N#CC1=C(N)n2c(s/c(=C\c3ccc(Cl)cc3)c2=O)=C(c2nc3ccccc3[nH]2)C1c1ccc(Cl)cc1 (stereo not given) : reported GI50 = 1.63 µM (inactive)

Record summary for CCC1CN2CCc3c([nH]c4ccccc34)C2C[C@@H]1CC(=O)N(C)C (stereo not given in full) : reported GI50 = > 100 µM (inactive)

Record summary for CCC1CN2CCC3(c4ccccc4)CC(C(=O)OC)=CC1C23 (stereo not given) : reported GI50 = 0.183 µM (active)

Record summary for CN(C)CCNC(=O)c1cccc2cc3c(Cl)cccc3nc12 : reported GI50 = 0.394 µM (active)

----------
- System: HOP-62
- testName: NCI tumour cell line growth inhibition, 48 h
The source made the active and inactive calls. Cut-off read from the data, not from the text of the source: active = GI50 up to about 1.1 µM and inactive = higher.
quantityKind: GI50

Record summary for Cc1ccc(SCC(CF)OC(C)n2cnc3c(O)nc(N)nc32)cc1 (stereo not drawn) : reported GI50 = > 100 µM (inactive)

Record summary for OCCN(CCO)c1ncnc2[nH]cnc12 : reported GI50 = > 100 µM (inactive)

Record summary for CC1(C)N=c2c(ncn2CCO)=C(C(N)=O)N1 : reported GI50 = > 100 µM (inactive)

----------
- Test system: OVCAR-3
- testName: NCI tumour cell line growth inhibition, 48 h
The source made the active and inactive calls. Cut-off read from the data, not from the text of the source: active = GI50 up to about 1.1 µM and inactive = higher.
quantityKind: GI50

Record summary for CC(C)C1=CC23CCC4C(C)(C(=O)O)CCCC4(C)C2CC1C1C(=O)N(CCCCCCN2C(=O)C4C5CC6C7(C)CCCC(C)(C(=O)O)C7CCC6(C=C5C(C)C)C4C2=O)C(=O)C13 (stereo not given) : reported GI50 = 13.9 µM (inactive)

Record summary for CCOC(=O)C(CC(C)C)NC(=O)C(Cc1ccc(N(CCCl)CCCl)cc1)NC(C)=O (stereo not given) : reported GI50 = 4.56 µM (inactive)

Record summary for O=C(N/N=C1\C(=O)N(c2nccs2)C(=O)C(=O)C1c1nc2ccccc2s1)c1ccccc1O (stereo not given) : reported GI50 = 35.9 µM (inactive)

Record summary for CCC1CN2CCc3c([nH]c4ccccc34)C2C[C@@H]1CC(=O)N(C)C (stereo not given in full) : reported GI50 = > 100 µM (inactive)

Record summary for O=C1NC(c2ccccc2)C1N(Cc1ccccc1)Cc1ccccc1 (stereo not given) : reported GI50 = > 100 µM (inactive)

Record summary for C/C(=C1\C(=O)C(c2ccccc2)N(c2ccccc2)C1=O)c1ccc(Cl)cc1 (stereo not given) : reported GI50 = 15.6 µM (inactive)

Record summary for O=c1c2cc(I)ccc2nc(-c2cccs2)n1/N=C/c1ccccc1 : reported GI50 = > 100 µM (inactive)

Record summary for O=S1(=O)NN=C(NCc2ccc(F)cc2)c2ccccc21 : reported GI50 = 67.5 µM (inactive)

Record summary for CSc1nc(N)c(NC2OC(CO)C(O)C2O)c(=O)[nH]1 (stereo not given) : reported GI50 = > 100 µM (inactive)

Record summary for CC(=O)c1ccc2c(c1)CC1(C2)Cc2cc3c(c(C(=O)O)c2C1)CCC3 (stereo not given) : reported GI50 = 92.5 µM (inactive)
